target: T1, human CD3 epsilon (Acro Cat #CDE-H5223) (human, UniProt P07766 23-126); assay: SPR (Biacore), antibody captured, human CD3 epsilon analyte
T1 construct: Bought recombinant protein; also called rhCD3E
T1 sequence (P07766 23-126 limits assumed): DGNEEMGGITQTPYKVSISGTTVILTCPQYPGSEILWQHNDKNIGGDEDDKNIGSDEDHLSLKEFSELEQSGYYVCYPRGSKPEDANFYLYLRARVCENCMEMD
READOUT: koff (s⁻¹)

[
  {
    "BINDER": "SRP 2037-B10 Y55D/R97D (antibody, human IgG1, lambda, V domains shown, human IgG1, lambda) VH: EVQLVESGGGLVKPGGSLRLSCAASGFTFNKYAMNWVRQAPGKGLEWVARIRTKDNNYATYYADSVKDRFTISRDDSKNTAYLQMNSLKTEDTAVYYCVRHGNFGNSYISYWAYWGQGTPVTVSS VL: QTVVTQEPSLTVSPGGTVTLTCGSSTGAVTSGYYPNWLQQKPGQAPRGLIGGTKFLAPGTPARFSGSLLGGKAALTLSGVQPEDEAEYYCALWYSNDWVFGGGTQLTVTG",
    "OBSERVED_RESULT": 0.000441
  },
  {
    "BINDER": "2037-B10_Hc-F29D (antibody, human IgG1, lambda, V domains shown, human IgG1, lambda; also called SRP 2037 F29D; 2037-B10_VH-F29D) VH: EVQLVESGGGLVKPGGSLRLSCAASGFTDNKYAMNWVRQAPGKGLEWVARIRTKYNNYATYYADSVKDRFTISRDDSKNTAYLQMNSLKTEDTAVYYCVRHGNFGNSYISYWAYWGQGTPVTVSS VL: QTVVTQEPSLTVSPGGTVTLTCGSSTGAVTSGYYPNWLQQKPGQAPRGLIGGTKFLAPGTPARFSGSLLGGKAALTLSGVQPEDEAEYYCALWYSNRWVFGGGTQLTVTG",
    "OBSERVED_RESULT": 0.000453
  },
  {
    "BINDER": "2037-B10_Hc-S107D (antibody, human IgG1, lambda, V domains shown, human IgG1, lambda; also called SRP 2037 S107D; 2037-B10_VH-S107D) VH: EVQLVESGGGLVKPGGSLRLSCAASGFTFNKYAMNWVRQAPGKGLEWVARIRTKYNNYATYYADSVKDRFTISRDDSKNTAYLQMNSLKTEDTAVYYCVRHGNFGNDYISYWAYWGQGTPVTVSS VL: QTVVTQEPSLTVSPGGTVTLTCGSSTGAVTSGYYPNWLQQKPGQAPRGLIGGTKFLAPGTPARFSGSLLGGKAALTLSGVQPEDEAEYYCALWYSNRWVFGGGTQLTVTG",
    "OBSERVED_RESULT": 0.00041
  }
]
